# measured-on: T1, FoxM1-DBD (FoxM1C 222-360) (UniProt Q08050 222-360)
# T1 sequence: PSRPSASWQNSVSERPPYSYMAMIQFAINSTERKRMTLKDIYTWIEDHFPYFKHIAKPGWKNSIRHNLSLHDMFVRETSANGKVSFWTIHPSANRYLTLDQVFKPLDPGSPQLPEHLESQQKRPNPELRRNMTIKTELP
# assay-explanation: fluorescence anisotropy
assay-readout: Kd (µM)
// units = µM; emit number, no label

Problem: Item under review: 11 bp consensus, TAMRA (dsDNA) DNA 1: CCATAAACAAC DNA 2: GTTGTTTATGG . Reported Kd?
Result: 7.5
